Assay: Growth inhibition of human Gurav cells by SRB assay
Format: functional
One threshold, 1000 nM, splits the recorded GI50 values: lower ones are MET, equal or higher ones are NOT MET.

Enquiry: Problem: For the compound COc1ccc(-c2ccc(-c3ccc(-c4nc5cc(C)ccc5[nH]4)cc3)cc2)cc1OC , is GI50 under 1000 nM?
Return: NOT MET

Others:
Enquiry: Answer whether the compound COc1cc(-c2ccc(-c3ccc(-c4nc5cc(C)ccc5[nH]4)cc3)cc2)cc(OC)c1OC has GI50 strictly less than 1000 nM
Return: MET

Enquiry: Regarding Oc1cccc2[nH]c(-c3ccc(-c4ccc(-c5ccccc5)cc4)cc3)nc12 , kindly confirm whether its GI50 is beneath 1000 nM.
Return: NOT MET

Enquiry: Strictly below 1000 nM in GI50? Cc1ccc2[nH]c(-c3ccc(-c4ccc(-c5cccc(Cl)c5)cc4)cc3)nc2c1
Return: NOT MET

Enquiry: Determine if Cc1ccc2[nH]c(-c3ccc(-c4ccc(-c5ccc(C(F)(F)F)cc5)cc4)cc3)nc2c1 shows GI50 strictly lower than 1000 nM.
Return: NOT MET
